Would you kindly list GI50 for each of these compounds?
- Test system: MV4:11 human cancer cell lines
- method: Cellular viability / anti-proliferative assay, CellTiter-Glo, 5 day protocol
- Assay type: cell-based
- condition.notes: Homo sapiens, MV4-11, 120 h, MV4:11 cells; 5 day incubation; CellTiter-Glo; mean of at least two replicates; read-out: GI50 on cellular proliferation of MV4:11 human cancer cell lines

Sample records with GI50:
- CCOC(=O)c1cc(CC)cc2c(N3CCc4c(cc(Cn5ccnc5)cc4-c4cn(C)nc4C(F)(F)F)C3=O)ccnc12: < 20 nM
- COc1cnc2cncc(N3CCc4c(cc(Cn5ccnc5)cc4-c4cn(C)nc4C(F)(F)F)C3=O)c2c1: < 20 nM
- CCc1cc(C(=O)NCCN(C)C)c2nc(C)cc(N3CCc4c(cc(Cn5ccnc5)cc4-c4cn(C)nc4C(F)(F)F)C3=O)c2c1: < 20 nM
- Cc1cc2c(N3CCc4c(cc(Cn5ccnc5)cc4-c4cn(C)nc4C(F)(F)F)C3=O)ccnc2n1C: 281 nM
- CCc1cc(C(=O)Nc2nccn2C)c2nccc(N3CCc4c(cc(Cn5ccnc5)cc4-c4cn(C)nc4C(F)(F)F)C3=O)c2c1: 59 nM
- COc1ccc2ncc(Cl)c(N3CCc4c(cc(Cn5ccnc5C)cc4-c4cn(C)nc4C(F)(F)F)C3=O)c2c1: 43 nM

Now turn to the next compound.
For "CCc1cc(C(=O)NC2CC2)c2nccc(N3CCc4c(cc(Cn5ccnc5)cc4-c4cn(C)nc4C(F)(F)F)C3=O)c2c1" , what is its reported GI50?
< 20 nM
